# System: nitric oxide production in LPS-stimulated RAW 264.7 macrophages
# test_description: Inhibition of NO production in LPS-stimulated RAW 264.7 macrophages (Griess reaction)
# Assay type: cell-based, mouse
# test_context: Mus musculus, RAW264.7; LPS-stimulated RAW 264.7 macrophages, LPS 100 ng/mL, 24 h; read-out: IC50, inhibition of NO production
pIC50: −log10 of the molar value.
assay_metric: pIC50

I = CC1CCC2C(C)(C)C(O)C(O)CC2(C)C12Cc1c(O)cc3c(c1O2)C(=O)NC3=O (centres unmarked) [Compound 3, Chartarlactam W]
II = CC(C)CC(C(=O)O)N1Cc2c(cc(O)c3c2O[C@]2(C3)[C@H](C)CC[C@H]3C(C)(C)[C@H](O)[C@H](O)C[C@@]32C)C1=O (some centres unmarked) [Compound 11]
III = C[C@@H]1CC[C@H]2C(C)(C)[C@H](O)CC[C@]2(C)[C@@]12Cc1c(O)cc3c(c1O2)CN(C(CCC(=O)O)C(=O)O)C3=O (some centres unmarked) [Compound 13]
Challenge: Rank the 3 compounds shown above by pIC50, smallest number first. Enter labels, ranked according to the request.
Response given: I, III, II
(I: 4.65, III: 4.95, II: 5.36)

a = CCC(C)C(C(=O)O)N1Cc2c(cc(O)c3c2O[C@]2(C3)[C@H](C)CC[C@H]3C(C)(C)[C@H](O)[C@H](O)C[C@@]32C)C1=O (some centres unmarked) [Compound 10]
b = C[C@@H]1CC[C@H]2C(C)(C)[C@H](O)[C@H](O)C[C@]2(C)[C@@]12Cc1c(O)cc3c(c1O2)CN(CCc1ccc(O)cc1)C3=O [Compound 1, Chartarlactam U]
Challenge: Please indicate which entry, a or b , has the lower recorded pIC50 value. Identify your pick by its label.
Response given: b
(b: 4.58, a: 4.91)
